Run Description: MM1S cell viability effects, profiling panel, calcein-AM fluorescence, 48 h, basal (AID 1165);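 further: viability of MM1S multiple myeloma cells under basal unstimulated conditions; test concentration not given here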
Study Conditions: higher = more signal
Property Name: z-score

Here's what some known entries look like.
# Compound, Obs Value
measured = [
    ("Cc1ccc(S[C@]2(C(=O)O)CC(=O)N(C3Cc4ccccc4C3)[C@@H]2c2ccc(CO)cc2I)cc1", -2.95),
    ("C#CCN(C(/C=C/c1ccccc1)CO)C(C(=O)O)c1ccccc1 (centres undefined)", -0.659),
    ("CC(C)NC(=O)[C@@H]1c2ccccc2C(=O)N(Cc2ccccc2Cl)[C@H]1c1ccc(CO)cc1", 0.0027),
    ("CC=CC(O)C1C=CC2C(=O)N(c3ccccc3)C(=O)C2N1Nc1ccc(C(C)C)cc1 (centres undefined)", -0.0872),
    ("CN(C)C(=O)[C@@]1(CCC(=O)OC(C)(C)C)N=C(c2ccc(OCCCO)cc2)O[C@H]1c1ccccc1", 0.301),
    ("C=C(COC)C(=O)CC[C@H](OC(C)=O)c1cccc(OCCO)c1", -2.94),
    ("CC(C)=CCCC(C)=CC(O)C1C=CC2C(=O)N(c3ccccc3)C(=O)C2N1Nc1ccccc1 (centres undefined)", -1.77),
    ("Cc1c(NC(=O)CC#N)c(=O)n(-c2ccccc2)n1C", 0.0823),
]

Now consider the entry below.
I'd like to know its z-score. The compound in question is COCCOC(=O)N1C(=O)[C@@]2(c3cc(C#CCC(C(=O)OC)C(=O)OC)ccc31)[C@H](C(=O)N1CCCCCCC1)[C@H]1C(=O)O[C@H](c3ccccc3)[C@H](c3ccccc3)N1[C@@H]2c1ccc(OCCO)cc1
-0.38
